Assay: Pharmacokinetic parameters for Indomethacin evaluated after oral administration of Indomethacin capsules.
Type: ADME, organism-based
Details: human, in vivo, dosed compound id 57, dosed compound name INDOMETHACIN, tissue Plasma
REPORTED ENDPOINT: bioavailability (%)
Output spec: scalar in %, unitless text.

Briefly, bioavailability measured for COc1ccc2c(c1)c(CC(=O)O)c(C)n2C(=O)c1ccc(Cl)cc1 : 100

* * *

Experiment: Pharmacokinetic parameters for Indomethacin evaluated after single oral administration of 25 or 50 mg Indomethacin capsules.
Format: ADME, organism-based
Design: dose 25 mg, dose 50 mg, route oral
Conditions: human, in vivo, po; dosed compound id 57, dosed compound name INDOMETHACIN, regimen Single dose, tissue Plasma
REPORTED ENDPOINT: Cmax

Briefly, Cmax measured for COc1ccc2c(c1)c(CC(=O)O)c(C)n2C(=O)c1ccc(Cl)cc1 : 1000 ng/mL
